Recorded below: AC50, system Cytochrome P450 2C9 (Homo sapiens).

Recorded results for 3 compounds are shown here.
CCOc1ccc(-n2cc(C(=O)NCc3ccco3)c3cc(OC)c(OC)cc3c2=O)cc1 = 4.47 µM (inconclusive)
COc1ccc(/C=C/C(=O)Oc2cccc(/C=N/NC(=O)COc3c(C)cccc3C)c2)cc1 = 3.55 µM (inconclusive)
O=C1NC(c2ccc(Br)cc2)Nc2sc3c(c21)CCC3 (configuration not stated) = 6.31 µM (inconclusive)

Exercise: Would you kindly share the measured AC50 for C=CCSc1nc2ccccc2c(=O)n1Cc1ccco1 ?
Solution: 3.98 µM (inconclusive)

Exercise: Reported AC50 for COc1ccc(CCn2c3c(c(=O)[nH]c2=O)C(NC(=O)c2cccs2)(C(F)(F)F)C(=O)N3)cc1OC (configuration not stated) : what is it?
Solution: 8.91 µM (inconclusive)

---

molecular target: Voltage-dependent T-type calcium channel subunit alpha-1H (Homo sapiens, UniProt O95180); assay type: functional;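 note: channel activity triggered by adding a high calcium stimulation buffer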
Sequence (O95180 whole entry): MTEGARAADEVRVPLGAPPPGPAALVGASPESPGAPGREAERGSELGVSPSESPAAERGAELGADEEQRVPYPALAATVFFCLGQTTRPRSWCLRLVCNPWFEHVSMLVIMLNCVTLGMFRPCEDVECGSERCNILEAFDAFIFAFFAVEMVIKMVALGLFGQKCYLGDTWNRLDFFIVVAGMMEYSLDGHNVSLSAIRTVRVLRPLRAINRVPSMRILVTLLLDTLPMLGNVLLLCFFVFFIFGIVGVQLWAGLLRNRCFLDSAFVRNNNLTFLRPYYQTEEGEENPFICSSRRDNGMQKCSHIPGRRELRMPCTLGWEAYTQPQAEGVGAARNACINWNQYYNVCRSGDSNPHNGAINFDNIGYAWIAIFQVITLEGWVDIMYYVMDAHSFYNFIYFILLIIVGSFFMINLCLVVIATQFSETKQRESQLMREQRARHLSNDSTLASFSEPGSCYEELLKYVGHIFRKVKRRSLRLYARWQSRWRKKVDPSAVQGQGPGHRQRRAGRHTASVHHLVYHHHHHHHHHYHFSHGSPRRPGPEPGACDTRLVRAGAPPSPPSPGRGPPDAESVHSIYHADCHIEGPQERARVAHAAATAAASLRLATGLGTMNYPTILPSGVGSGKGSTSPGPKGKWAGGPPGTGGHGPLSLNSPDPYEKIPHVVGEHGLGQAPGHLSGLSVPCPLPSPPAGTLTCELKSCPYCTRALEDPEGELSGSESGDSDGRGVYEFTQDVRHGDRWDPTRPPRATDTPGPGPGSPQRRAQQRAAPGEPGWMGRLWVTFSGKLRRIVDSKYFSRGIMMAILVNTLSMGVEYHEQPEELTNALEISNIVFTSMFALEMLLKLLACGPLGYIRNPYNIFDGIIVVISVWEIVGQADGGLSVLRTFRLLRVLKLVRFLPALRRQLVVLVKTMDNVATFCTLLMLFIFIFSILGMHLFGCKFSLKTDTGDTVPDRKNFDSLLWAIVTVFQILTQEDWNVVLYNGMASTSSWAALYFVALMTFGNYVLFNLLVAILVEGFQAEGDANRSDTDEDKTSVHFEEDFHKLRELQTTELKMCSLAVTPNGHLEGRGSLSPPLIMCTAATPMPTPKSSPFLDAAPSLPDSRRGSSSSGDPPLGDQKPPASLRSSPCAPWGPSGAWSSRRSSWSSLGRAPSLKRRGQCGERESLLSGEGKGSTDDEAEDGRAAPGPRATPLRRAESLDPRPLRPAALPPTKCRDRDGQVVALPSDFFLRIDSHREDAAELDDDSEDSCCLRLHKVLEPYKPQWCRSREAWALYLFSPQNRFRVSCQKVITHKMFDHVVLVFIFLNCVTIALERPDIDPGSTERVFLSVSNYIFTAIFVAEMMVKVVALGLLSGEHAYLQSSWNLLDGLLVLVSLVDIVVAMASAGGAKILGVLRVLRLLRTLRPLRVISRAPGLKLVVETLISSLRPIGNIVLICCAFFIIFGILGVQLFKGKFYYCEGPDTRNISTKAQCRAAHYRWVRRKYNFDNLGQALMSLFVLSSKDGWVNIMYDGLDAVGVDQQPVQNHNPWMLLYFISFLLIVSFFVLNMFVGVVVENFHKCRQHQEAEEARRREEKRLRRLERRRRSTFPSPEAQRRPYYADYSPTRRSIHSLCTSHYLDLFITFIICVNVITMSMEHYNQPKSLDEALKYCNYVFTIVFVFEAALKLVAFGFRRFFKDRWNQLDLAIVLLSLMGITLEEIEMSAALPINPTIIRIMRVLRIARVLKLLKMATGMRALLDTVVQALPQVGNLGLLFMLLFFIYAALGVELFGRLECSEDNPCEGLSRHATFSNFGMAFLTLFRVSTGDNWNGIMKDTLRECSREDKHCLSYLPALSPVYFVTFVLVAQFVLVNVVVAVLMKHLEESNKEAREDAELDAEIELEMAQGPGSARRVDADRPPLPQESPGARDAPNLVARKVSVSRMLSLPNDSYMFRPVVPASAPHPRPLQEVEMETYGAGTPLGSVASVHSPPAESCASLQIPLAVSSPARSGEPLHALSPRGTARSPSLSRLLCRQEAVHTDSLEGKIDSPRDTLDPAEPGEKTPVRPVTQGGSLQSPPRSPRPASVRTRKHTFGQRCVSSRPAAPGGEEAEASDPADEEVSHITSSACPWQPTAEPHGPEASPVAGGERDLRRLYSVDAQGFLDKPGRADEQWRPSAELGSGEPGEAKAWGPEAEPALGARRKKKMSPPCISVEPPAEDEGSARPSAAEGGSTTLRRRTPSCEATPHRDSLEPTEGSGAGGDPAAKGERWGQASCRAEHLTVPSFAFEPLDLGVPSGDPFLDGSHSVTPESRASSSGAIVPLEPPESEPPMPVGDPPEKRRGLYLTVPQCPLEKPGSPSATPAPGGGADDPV
The source made the active and inactive calls.
REPORTED METRIC: EC50

Exercise: Bench note: what EC50 did CCN(CC)S(=O)(=O)c1ccc(C(=O)NCCSc2c[nH]c3ccccc23)cc1 show?
Solution: 3.87 µM (active)

Exercise: Data request, read-out EC50, for CCn1c(CSc2nc3ccccc3s2)nc2ccccc21
Solution: 5.73 µM (active)

Exercise: May I ask what EC50 has been recorded for O=C(Nc1nc(-c2cccs2)cs1)c1cccc(S(=O)(=O)N2CCCCC2)c1 ?
Solution: 4.13 µM (active)

Exercise: Query: EC50; subject: O=C(CCCOc1ccccc1)N1CCN(c2ccccc2)CC1
Solution: 13.9 µM (active)

---

EC50 by entry:
target: Corticotropin-releasing factor receptor 2/Corticotropin-releasing factor-binding protein (Homo sapiens, UniProt P24387+Q13324); test: activators of CRF receptor 2 with binding protein – uHTS hits, confirmation (AID 602473); type: functional; conditions: read-out: EC50_Mean
Sequence (Q13324 whole entry): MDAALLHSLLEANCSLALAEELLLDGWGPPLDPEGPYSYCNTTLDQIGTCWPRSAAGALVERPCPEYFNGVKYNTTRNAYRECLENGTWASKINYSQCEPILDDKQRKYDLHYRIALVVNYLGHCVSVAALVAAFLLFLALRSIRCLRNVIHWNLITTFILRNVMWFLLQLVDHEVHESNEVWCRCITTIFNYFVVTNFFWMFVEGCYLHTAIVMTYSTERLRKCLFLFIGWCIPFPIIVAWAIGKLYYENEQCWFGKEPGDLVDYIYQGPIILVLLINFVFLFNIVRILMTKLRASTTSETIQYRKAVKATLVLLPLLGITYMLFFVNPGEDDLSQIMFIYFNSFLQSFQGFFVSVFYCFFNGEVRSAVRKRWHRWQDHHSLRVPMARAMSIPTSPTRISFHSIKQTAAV
Sequence (P24387 whole entry): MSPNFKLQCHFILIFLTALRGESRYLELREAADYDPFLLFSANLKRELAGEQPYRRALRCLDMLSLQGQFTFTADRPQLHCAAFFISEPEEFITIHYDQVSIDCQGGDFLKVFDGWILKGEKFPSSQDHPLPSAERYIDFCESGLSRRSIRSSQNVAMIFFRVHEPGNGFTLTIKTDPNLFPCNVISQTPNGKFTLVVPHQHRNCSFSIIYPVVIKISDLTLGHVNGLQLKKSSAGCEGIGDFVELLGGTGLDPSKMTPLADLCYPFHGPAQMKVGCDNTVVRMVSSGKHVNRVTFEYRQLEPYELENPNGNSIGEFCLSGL
Active and inactive are the calls of the source.

O=C(OCc1ccc2c(c1)OCO2)c1ccc(S(=O)(=O)N2CCCC2)cc1 = > 53 µM (inactive)
O=C(Nc1ccc(SC(F)F)cc1)c1ccc2c(=O)n3c(nc2c1)CCC3 = 1.4 µM (active)

Exercise: Please look up its EC50: O=C(Nc1ccccc1C(=O)N1CCOCC1)c1ccncc1
Solution: > 53 µM (inactive)

Exercise: Requested field: EC50. Item: COc1ccc(N2CCN(CCCNC(=O)C(=O)c3c(C)[nH]c4ccccc34)CC2)cc1
Solution: > 53 µM (inactive)

Exercise: Would you mind telling me what EC50 value was observed for Cc1ccc(S(=O)(=O)N[C@H](C(=O)OCC(=O)N2N=C(c3ccc(Cl)cc3)CC2c2ccco2)C(C)C)cc1 (stereo not given in full) ?
Solution: > 53 µM (inactive)

Exercise: Using the record for Cc1cc(/C=C(/C#N)C(=O)O)c(C)n1-c1cccc2ccccc12 , report its EC50.
Solution: > 53 µM (inactive)

Exercise: What does the data say about its EC50? Entry: Cc1noc(C)c1COC(=O)c1cccc(S(=O)(=O)N2c3ccccc3CC2C)c1 (stereo not given)
Solution: > 53 µM (inactive)

Exercise: Give its EC50 value. Item: O=C(COc1ccccc1)NCc1ccco1
Solution: > 53 µM (inactive)

Exercise: I'd like to know its EC50. The compound in question is Cc1ccc(N=Nc2ccc(O)c(P(=O)(c3ccccc3)c3ccccc3)c2)cc1
Solution: > 53 µM (inactive)

Exercise: // query EC50 value for entry COc1ccc(C(=O)NCCS(=O)(=O)N(C)C2CCCCC2)cc1
Solution: > 53 µM (inactive)

Exercise: Give its EC50 value. Item: Cc1cccc(C)c1NC(=O)c1sccc1SCc1cccc(C(F)(F)F)c1
Solution: > 53 µM (inactive)

Exercise: I have this compound here, CC1=CC(=C(C#N)c2nc3ccccc3s2)C=C(C)N1CC1CCCO1 (stereo not given) , and I need its recorded EC50.
Solution: 14.7 µM (active)

Exercise: Entry under review: CCS(=O)(=O)C1=NSC2=NC(=O)/C(=C\c3cc(C)n(-c4cccc(OC)c4)c3C)C(=N)N21 . Reported EC50?
Solution: > 53 µM (inactive)

Exercise: Give the measured EC50 of CCOC(=O)c1sc(NC(=O)c2cc(-c3ccccc3)nc3ccccc23)c(C#N)c1C .
Solution: 0.544 µM (active)

Exercise: What measured EC50 goes with COc1ccc(N(CC(=O)NCCSc2ccccn2)S(=O)(=O)c2ccc(C)cc2)cc1OC ?
Solution: > 53 µM (inactive)

These entries and their values trace back to ChEMBL document CHEMBL1201862.
